EC50 values by entry
tested on: BJ; experiment: BJ-TERT fibroblast viability loss – cell-based, RAS-independent, luminescence, dose response (AID 1933); assay type: functional; conditions: Homo sapiens
Active and inactive are the calls of the source. Rule as the data show it: actives have a measured EC50 and inactives only a lower limit.

compound: O=[N+]([O-])c1ccc(N=Nc2ncc[nH]2)cc1
EC50: 5400 nM (inconclusive)

compound: Cc1ccc(-c2cc(-c3ccc(C)cc3)[n+](-c3ccc(C(=O)[O-])cc3)c(-c3ccc(C)cc3)c2)cc1
EC50: 2760 nM (active)

compound: Cc1cc(NC(=O)CCl)no1
EC50: 18000 nM (active)

compound: Cc1cc(C)c2sc(N(CCCN(C)C)C(=O)c3ccc(S(=O)(=O)N4CCc5ccccc5C4)cc3)nc2c1
EC50: 1570 nM (active)

compound: COc1ccc(C(C(=O)NC2CCCCC2)N(C(=O)CCl)c2cccc(Cl)c2)cc1 (stereo not given)
EC50: 176 nM (inconclusive)

----------
Molecular target: RNA-binding protein pos-1 (Caenorhabditis elegans, UniProt G5EF15)
Sequence (G5EF15 whole entry): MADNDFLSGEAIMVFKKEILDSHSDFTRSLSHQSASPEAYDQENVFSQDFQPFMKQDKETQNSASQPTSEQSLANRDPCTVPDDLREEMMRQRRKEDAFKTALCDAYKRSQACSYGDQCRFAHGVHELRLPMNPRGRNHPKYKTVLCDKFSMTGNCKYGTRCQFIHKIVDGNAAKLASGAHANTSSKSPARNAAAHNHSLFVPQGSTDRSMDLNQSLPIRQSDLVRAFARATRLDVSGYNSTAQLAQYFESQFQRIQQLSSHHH
Test: disruptors of C. elegans POS-1 RNA interaction – biochemical, fluorescence polarization, dose response (AID 1964);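 also: purified POS-1 fused to maltose binding protein made in E. coli; potency of compounds blocking POS-1 binding to fluorescent RNA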
Calls of active or inactive are those of the source. No stated cut-off is given here; in the data, actives have a measured EC50 and inactives only a lower limit.
EC50 values by entry

compound: Cc1ccc(C)c(N(C)C(=O)c2coc(=O)c3ccccc23)c1
EC50: > 300 µM (not active)
--
compound: Cc1ccc2nc3c(cc(C(=O)NCC4CCCO4)c(=N)n3C3CCCC3)c(=O)n2c1 (stereo unspecified)
EC50: > 300 µM (not active)
--
compound: COc1ccc(/C=C2\SC(=S)N(CCC(=O)NC3CCCC3)C2=O)cc1OC
EC50: > 300 µM (not active)
--
compound: Nc1ccc2nc(-c3ccccc3)c(-c3ccccc3)nc2c1
EC50: 23.9 µM (inconclusive)
--
compound: Cn1c(=O)cc2c3c(c(N4CCCCC4)ccc31)C(=O)c1ccccc1-2
EC50: > 300 µM (inconclusive)
--
compound: NS(=O)(=O)c1cc(C(=O)NC2CCSc3ccccc32)ccc1Cl (stereo unspecified)
EC50: 13.4 µM (inconclusive)
--
compound: O=C(CNC(=O)/C=C/c1ccco1)N=Nc1c(O)[nH]c2ccccc12
EC50: 13.1 µM (inconclusive)
--
compound: Cc1nc2c3ccccc3nc(NNC(=O)CCC(=O)N3CCCC(C)C3)n2n1 (stereo unspecified)
EC50: > 300 µM (not active)
--
compound: COc1cc2[nH]c(C(=O)NN)c(N)c2cc1OC
EC50: 117 µM (active)
--
compound: Cn1cc(C2=C(c3ccc(Cl)cc3Cl)C(=O)NC2=O)c2ccccc21
EC50: 26 µM (active)
--
compound: COc1ccccc1CCC(=O)OCc1csc(CC(=O)Nc2ccccc2C)n1
EC50: > 300 µM (not active)

Provenance of the data: ChEMBL document CHEMBL1201862
